Each entry below carries its recorded GI50.
# System: HCC-2998 colon
# protocol_notes: NCI tumour cell line growth inhibition, 48 h

Look over these answered cases.
>  <compound>
COc1cc2c(C#N)n3c(c2cc1OC)C(=O)C(c1ccccc1)Oc1ccccc1-3 (stereo not drawn)

>  <result>
> 100000 nM

$$$$
>  <compound>
Cc1cc(C)c(S(=O)(=O)Oc2ccccc2[N+](=O)[O-])c(C)c1

>  <result>
2950 nM

$$$$

Turning now to a further compound:
State, in one line, measured GI50 of `C=C(C)[C@@H]1CC[C@]2(C)[C@H](CC=C3[C@@H]4CC(C)(C)CC[C@]4(C(=O)OC)CC[C@]32C)[C@@]1(C)CC/C(N)=N/O`
1860 nM

----------
# Test system: SK-OV-3 ovarian
# protocol_notes: NCI tumour cell line growth inhibition, 48 h
recorded_endpoint: TGI

Look over these answered cases.
>  <molecule>
CN1NC(c2ccccc2)=C(C#N)C(=O)CC1c1ccccc1Cl (stereo unspecified)

>  <target_desc>
SK-OV-3 ovarian

>  <TGI>
> 100 µM

$$$$
>  <molecule>
CCCNCC(O)/C=C/[Si](C)(C)C (stereo unspecified) (tested in a mixture with another compound)

>  <target_desc>
SK-OV-3 ovarian

>  <TGI>
> 100 µM

$$$$
>  <molecule>
COC(=O)/C=C\C1C(C(=O)OC)C2(C(=O)OC)CCC1(C(=O)OC)N2 (stereo unspecified)

>  <target_desc>
SK-OV-3 ovarian

>  <TGI>
31.9 µM

$$$$

State, in one line, measured TGI of `CCCCCCc1ccc(O)cc1O`
> 100 µM

State, in one line, measured TGI of NC(Cc1ccc2oc3cc(=O)c4ccccc4c-3nc2c1)C(=O)O (stereo unspecified)
> 100 µM

State, in one line, measured TGI of C=CC1(C)/C(=N\O)C(C)(CC)C(=O)N1O (stereo unspecified)
> 100 µM

State, in one line, measured TGI of `CCOC(=O)c1c(N2CCOCC2)[nH]c(=O)c(C(c2ccc(N(C)C)cc2)c2c(O)c(C(=O)OCC)c(N3CCOCC3)[nH]c2=O)c1O`
> 100 µM

State, in one line, measured TGI of `COc1cc2c(cc1OC)[C@]1(O)C(=O)c3ccc4c(c3O[C@@H]1CO2)C[C@H](C(C)(C)O)O4`
> 100 µM

State, in one line, measured TGI of `CC(C)(C)OC(=O)N(CCCn1c2c(c3ccccc3c1=O)C(=O)c1ccccc1-2)CCN(CCCn1c2c(c3ccccc3c1=O)C(=O)c1ccccc1-2)C(=O)OC(C)(C)C`
> 50 µM

State, in one line, measured TGI of `COc1cc2c(c(OC)c1OC)C(=O)c1c-2n(CCCN)c(=O)c2cc([N+](=O)[O-])ccc12`
4 µM

State, in one line, measured TGI of CCOc1ccccc1N=NC1C(=O)N(C(=O)CC(=O)Nc2ccccc2Cl)N=C1C (stereo unspecified)
90.3 µM

State, in one line, measured TGI of `O=C(C1=CCC2(CC1)OCCO2)N(Cc1ccccc1)c1ccccc1I`
88.2 µM

----------
# Tested on: CAKI-1 renal
# protocol_notes: NCI tumour cell line growth inhibition, 48 h
Each entry below carries its recorded TGI.

>  <molecule>
CC(C)c1cccc2sc(NC(=O)C(=O)CC(=O)c3ccc(F)cc3)nc12

>  <TGI>
> 100 µM

$$$$
>  <molecule>
COC(=O)C1=C(O)C(C(=O)OC)[C@@]2(O)[C@@H](C(=O)OC)C(c3ccc(OC(=O)/C(=C/c4ccccc4)c4ccccc4)cc3)C[C@@H]1[C@@H]2C(=O)OC (some centres undefined)

>  <TGI>
> 100 µM

$$$$
>  <molecule>
C#Cc1cccc(N2C(=O)CC(=P(c3ccccc3)(c3ccccc3)c3ccccc3)C2=O)c1

>  <TGI>
> 100 µM

$$$$
>  <molecule>
CNC(=O)OC(C)CN1c2ccccc2Sc2ccccc21 (centres undefined)

>  <TGI>
> 100 µM

$$$$
>  <molecule>
O=C(O/N=C1/CCC/C1=C\c1ccccc1)c1ccc(Cl)cc1

>  <TGI>
> 82.4 µM

$$$$

Turning now to a further molecule:
State, in one line, measured TGI of CCCCCCCCCCCCCCCCCCNc1ccn(C2OC(COP(=O)(O)OCCCCCCCCCCCCCCCC)C(O)C2O)c(=O)n1 (centres undefined)
> 100 µM
